Target: ferroportin (Fpn) (Mus musculus)
Construct: host or cells: J774 mouse macrophage cell line, Fe(III)-NTA induced
Sequence (Q9JHI9 whole entry): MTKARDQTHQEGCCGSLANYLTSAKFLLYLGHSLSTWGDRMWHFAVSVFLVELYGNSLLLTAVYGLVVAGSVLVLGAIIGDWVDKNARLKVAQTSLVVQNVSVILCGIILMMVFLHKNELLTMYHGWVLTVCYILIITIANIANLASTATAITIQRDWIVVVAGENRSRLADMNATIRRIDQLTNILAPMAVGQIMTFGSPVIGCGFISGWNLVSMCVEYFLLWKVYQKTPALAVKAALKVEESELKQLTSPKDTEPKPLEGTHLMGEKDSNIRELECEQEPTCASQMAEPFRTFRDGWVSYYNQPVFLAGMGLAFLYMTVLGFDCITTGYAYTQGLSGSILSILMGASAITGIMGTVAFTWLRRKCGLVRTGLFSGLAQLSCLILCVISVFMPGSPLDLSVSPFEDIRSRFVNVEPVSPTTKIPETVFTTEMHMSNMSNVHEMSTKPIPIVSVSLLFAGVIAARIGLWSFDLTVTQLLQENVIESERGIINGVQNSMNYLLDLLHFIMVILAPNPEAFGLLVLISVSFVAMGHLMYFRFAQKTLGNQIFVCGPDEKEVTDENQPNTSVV
Assay: Hepcidin Internalization Assay (J774)
Format: cell-based
Conditions: average of multiple measurements; inhibition of TMR-hepcidin (25 nM) internalization into J774 cells; read-out: J774 IC50
recorded.metric: pIC50
Give bare numbers, as −log10 of the molar value.

Would you please look over these solved cases?
• O=C(c1csc(CCNCc2nc3ccccc3[nH]2)n1)N1CCCCC1 = 5.31
• O=C(NCc1ccc(C(F)(F)F)nc1)c1csc(CCNCc2nc3ccccc3[nH]2)n1 = 6.38
• O=C(NCc1ncccc1F)c1coc(CCNCCc2nc3c(C(F)(F)F)cccc3[nH]2)n1 = 7.09
• O=C(NCc1ncccc1F)c1csc(CNCCc2nc3ccccc3[nH]2)n1 = 6.99

Go through the list and state pIC50 for each entry.
1. CC(C)(NC(=O)c1csc(CCNCc2nc3ccccc3[nH]2)n1)c1ccccc1
2. O=C(NCc1ncccc1F)c1csc(CCCNc2nc3ccccc3[nH]2)n1
3. O=C(NCc1ncccc1F)c1coc(CCNCCc2nc3c(F)ccc(Cl)c3[nH]2)n1
4. O=C(NCc1ncccc1Cl)c1cnn(CCNCCc2nc3ccccc3[nH]2)c1
5. O=C(NCc1ccccc1)c1csc(CCNCc2nccs2)n1

1: 6.15; 2: 5.47; 3: 7.09; 4: 7.92; 5: 4.78

Go through the list and state pIC50 for each entry.
1. O=C(NCc1ccccc1)c1csc(CCNCc2ncc[nH]2)n1
2. O=C(NCc1ncccc1F)c1cccc(CCNCCc2nc3c(F)cccc3[nH]2)c1
3. O=C(NCc1ncccc1F)c1coc(CCNCc2nc3c(F)cccc3[nH]2)n1
4. O=C(NCc1ncccc1F)c1coc(CCNCCc2nc3c(F)c(F)ccc3[nH]2)n1
5. O=C(NCc1ncccc1F)c1coc(CCNCCc2nc3cc(F)ccc3[nH]2)n1
6. O=C(NCc1ncc(C(F)(F)F)cc1Cl)c1csc(CCNCc2nc3ccccc3[nH]2)n1
7. CN1CCOCC1CNC(=O)c1csc(CCNCc2nc3ccccc3[nH]2)n1 (centres unmarked)

1: 5.03; 2: 5.68; 3: 6.65; 4: 7.46; 5: 7.85; 6: 6.55; 7: 5.40

Go through the list and state pIC50 for each entry.
1. O=C(NCc1ncccc1F)c1csc(CCNCC(F)(F)c2nc3ccccc3[nH]2)n1
2. O=C(NCc1ccccc1)c1csc(CCNCc2nc3ccccc3[nH]2)n1
3. O=C(NCc1ccccc1)c1csc(CCNC(=O)c2ncc[nH]2)n1
4. O=C(c1csc(CCNCc2nc3ccccc3[nH]2)n1)N1CCc2ncccc2C1
5. O=C(NCc1ncccc1C(F)(F)F)c1csc(CCNCc2nc3ccccc3[nH]2)n1
6. O=C(NCc1ncccc1F)c1cnn(CCNCc2nc3ccccc3[nH]2)c1
7. O=C(Nc1ncccc1F)c1csc(CCNCc2nc3ccccc3[nH]2)n1

1. 5.95
2. 6.30
3. 4.37
4. 5.88
5. 6.09
6. 6.41
7. 6.46

Go through the list and state pIC50 for each entry.
1. CC(NC(=O)c1csc(CCNCc2nc3ccccc3[nH]2)n1)c1ccccn1 (centres unmarked)
2. O=C(NCc1ncccc1F)c1csc(CCN(CCc2nc3ccccc3[nH]2)CCc2nc3ccccc3[nH]2)n1
3. Cc1cc(CNC(=O)c2csc(CCNCc3nc4ccccc4[nH]3)n2)ccn1
4. O=C(NCc1ncccc1Cl)c1nc(CCNCc2nc3ccccc3[nH]2)sc1Cl

1. 6.46
2. 8.40
3. 5.52
4. 7.04

The measurements presented in this section are drawn from patent US10738041B2.
